Here the recorded GI50 is given for each entry.
- System: Hs-578T
- Assay summary: NCI tumour cell line growth inhibition, 48 h
Active and inactive are the calls of the source. No stated cut-off is given here; in the data, active = GI50 up to about 1.1 µM and inactive = higher.

# annotated cases, reported GI50 shown
CC(C)(C)C1CCC2c3c([nH]c4ccccc34)C3C(=O)N(c4ccc(C#N)cc4)C(=O)C3C2C1 (centres undefined) :: 11.2 µM (inactive)
C=C1C(=O)O[C@H]2C(=O)[C@H](C)CCC[C@@](C)(O)/C=C\C[C@@]3(C)O[C@@H]3C[C@@H]12 :: 27 µM (inactive)
Cc1occc1/C(S)=N\c1ccc(Cl)c(COC(C)(C)C)c1 :: 20.2 µM (inactive)

Alright, here's another molecule for you.
The molecule listed as `C=C(CC[C@@H](C(=O)O)[C@H]1[C@H](O)C[C@@]2(C)C3=CC[C@@H](C(=C)C)[C@](C)(CCC(=O)O)C3=CC[C@]12C)C(C)C` has a reported GI50 of 22.6 µM (inactive)

----------
- Tested on: BT-549
- Assay summary: NCI tumour cell line growth inhibition, 48 h
Activity calls are given as the source filed them. Rule as the data show it: active = GI50 up to about 1.1 µM and inactive = higher.
The reply should be one of these categories: label 1 (active), label 0 (inactive)

O=C(OCCN=c1c2ccccc2ccc2ccccc12)c1cc([N+](=O)[O-])cc([N+](=O)[O-])c1 :: label 0
COc1ccc(N2C=Nn3c(nc4sc(C)c(C)c4c3=O)C2)cc1 :: label 0
CC(=O)O[C@H]1[C@@H](N2CCOCC2)C[C@H]2[C@@H]3CC=C4C[C@@H](N5CCCC5)CC[C@]4(C)[C@H]3CC[C@@]21C :: label 0

In: Tell me the assay call for `COc1cc([C@@]23OC[C@@H]4[C@@H](OC[C@@H]42)c2cc4c(cc23)OCO4)cc(OC)c1OC` please.
Out: label 1

----------
- Tested on: DLD-1
- Assay summary: NCI tumour cell line growth inhibition, 48 h
Active and inactive are the calls of the source. Cut-off read from the data, not from the text of the source: active = GI50 up to about 1.1 µM and inactive = higher.
Readout type: GI50

Recorded GI50, per entry:
CCOC(=O)c1ncoc1[C@H]1COC(C)(C)O1 :: > 100 µM (inactive)
CC1C=C(OC(=O)c2ccccc2)C(=O)C(n2cc(F)c(=O)n(C(=O)c3ccccc3)c2=O)O1 (stereo not drawn) :: 41.6 µM (inactive)
COCC1N=C(c2ccc(OC)c(OCc3ccccc3)c2OC)O[C@H]1c1ccccc1 (stereo partly drawn) :: 20.6 µM (inactive)
C=C(CCCCCCCCC)CC(=O)SCCNC(=O)CCNC(=O)C(O)C(C)(C)COP(=O)(O)OP(=O)(O)OCC1OC(n2cnc3c(N)ncnc32)C(O)C1OP(=O)(O)O (stereo not drawn) :: 42.9 µM (inactive)
C=C1C[C@]23C[C@@]1(O)CC[C@H]2[C@@]12C=C[C@H](O)[C@@](C)(C(=O)O1)[C@H]2[C@@H]3C(=O)O :: > 100 µM (inactive)
CN(NC1OC(CO)C(O)C(O)C1O)c1ccccc1 (stereo not drawn) :: > 100 µM (inactive)
COC(=O)C1=C(c2ccc(OC)c(OC)c2)OC(c2cc(OC)c(OC)c(OC)c2)C1 (stereo not drawn) :: 2.12 µM (inactive)
CN(C)C(=C1C(Br)=C(Br)C(Br)=C1Br)N(C)C :: > 100 µM (inactive)
CCOC(=O)N1CCc2cc(OC)c(OC)cc2/C1=C\c1ccc(OC)c(OC)c1 :: 37 µM (inactive)
COC(=O)C1=C(C)N(NC(N)=O)C2(N)N(NC(N)=O)C(C)=C(C(=O)OC)C12C#N (stereo not drawn) :: > 100 µM (inactive)

Looking up `NCc1cccc(O)c1O` , I see its GI50 listed as 90.4 µM (inactive)

GI50 measured on `Oc1cccc2nc3cc(CN4CCOCC4)c(CN4CCOCC4)cc3nc12` = 61 µM (inactive)

Value of measured GI50 for the entry `CCCCC#COS(=O)(=O)c1ccc(C)cc1` : 57.9 µM (inactive)

get_value(item= O=C1NN=C(c2ccc([N+](=O)[O-])cc2)C1n1nc(-c2ccccc2)c2ccccc2c1=O (stereo not drawn) , readout=GI50) returns > 50.7 µM (inactive)

The reported value for `CC1=C(C(=O)Nc2ccc([N+](=O)[O-])cc2)C(c2cccc([N+](=O)[O-])c2)C(C(=O)Nc2ccc([N+](=O)[O-])cc2)=C(C)N1` in terms of GI50 is 9.66 µM (inactive)

Per the record, O=C(O)CP(=S)(S)c1ccccc1 (stereo not drawn) has GI50 of > 100 µM (inactive)

Summary for this molecule, `COCCOCCOCCOc1cccc2c1C(=O)c1cccc(OCCOCCOCCOC)c1C2=O` : GI50 is > 100 µM (inactive)

----------
- System: DU-145
- Assay summary: NCI tumour cell line growth inhibition, 48 h
Activity calls are given as the source filed them. Rule as the data show it: active = GI50 up to about 1.1 µM and inactive = higher.
In this section we review reported GI50 values for a set of compounds.

Examples with answers:
CC(C)C(=O)OCC1OC(n2c(Br)nc3c(=O)[nH]c(N)nc32)C(OC(=O)C(C)C)C1OC(=O)C(C)C (stereo unspecified) :: > 100 µM (inactive)
O=C(O)c1cc2cc(OCc3ccccc3)ccc2[nH]1 :: > 100 µM (inactive)
CCC1(c2ccccc2)Sc2ccccc2-n2cccc2C1=O (stereo unspecified) :: > 10 µM (inactive)
Cn1c(=O)c2c(ncn2CCSS(=O)(=O)O)n(C)c1=O :: > 100 µM (inactive)

Quick note, GI50 for `COC(=O)c1c(C)[nH]c2c1cc(O)c1nc(C)c(C)nc12` landed at > 100 µM (inactive)

# GI50 (compound: OC1CN2CCS[C@H]2C(O)C1O (stereo partly specified) ) is > 100 µM (inactive)

# compound `Cc1ccc2nc(-c3ccc(C(C)(C)C)cc3)oc(=O)c2c1` ; its GI50 = 26.7 µM (inactive)

CCOC(=O)C(C)(C)C(O)C(C)C (stereo unspecified) yielded GI50 of > 100 µM (inactive)

The compound identified as `Cc1occc1/C(S)=N\c1ccc(Cl)c(COC(C)(C)C)c1` registered its GI50 at 20.1 µM (inactive)

----------
- System: NCI-H522
- Assay summary: NCI tumour cell line growth inhibition, 48 h
The source made the active and inactive calls. Rule as the data show it: active = GI50 up to about 1.1 µM and inactive = higher.
One label from this list, please: active, inactive

See these solved cases before continuing.
OC1CN2CCS[C@H]2C(O)C1O (stereo partly specified) :: inactive
COc1ccc([C@]23CCN(S(=O)(=O)c4ccc(C)cc4)[C@H]2[C@H](CO)C2(CC3)OCC(C)(C)CO2)cc1OC :: inactive
COc1ccc2c([nH]c3c(O)c(-c4c(C)cc5c([nH]c6c(CC=C(C)C)c(OC)ccc65)c4O)c(C)cc32)c1CC=C(C)C [BISMURRAYAFOLINE B] :: inactive

In: Which outcome was entered for the molecule c1ccc(N2N=C(c3ccco3)CC2c2ccco2)cc1 (stereo unspecified) in this test?
Out: inactive

In: Hello, I am checking results. What call was entered for `CC(=O)C1(C(=O)C(=[N+]=[N-])S(=O)(=O)c2ccccc2)CC1` ?
Out: inactive

In: For `CO/C=C(/C(=O)OC)c1ccccc1[C@H]1C[C@@H]1c1ccc(OC)cc1` , what call appears in the results of this test?
Out: inactive

In: Test call for this molecule, please: `COc1ccc2c(c1)/C(=C\c1c(Cl)[nH]c3ccccc13)C(=O)N2`
Out: inactive

In: Write down the call the test reported for this molecule. Item: `COc1cc([C@@]23OC[C@@H]4[C@@H](OC[C@@H]42)c2cc4c(cc23)OCO4)cc(OC)c1OC`
Out: active

----------
# GI50 values compiled below
- Tested on: SW-620
- Assay summary: NCI tumour cell line growth inhibition, 48 h
Activity calls are given as the source filed them. No stated cut-off is given here; in the data, active = GI50 up to about 1.1 µM and inactive = higher.

O=[N+]([O-])c1cccc(-c2ncnc(-c3cccc([N+](=O)[O-])c3)n2)c1 :: > 100 µM (inactive)
Clc1ccc(-c2nn3c(-c4ccncc4)nnc3s2)cc1 :: > 100 µM (inactive)
Nc1ncnc2c1ncn2C1OC(CO)CC1O (stereo unspecified) :: 35.1 µM (inactive)

GI50 reading for CC(C)C(=O)OCC1OC(n2c(Br)nc3c(=O)[nH]c(N)nc32)C(OC(=O)C(C)C)C1OC(=O)C(C)C (stereo unspecified) : 29.2 µM (inactive)

Entry NC(CCc1ncc(C(=O)O)s1)C(=O)O (stereo unspecified) , GI50 reported as > 100 µM (inactive)

Consider `N#Cc1cccc(/C=N/C23CC4CC(CC(C4)C2)C3)c1` . Its measured GI50 is > 100 µM (inactive)

Query C=C1C(=O)OCC2C(C(=O)O)=CC3C(C)C(C)=CC123 (stereo unspecified) yields GI50 of 9.31 µM (inactive)

Recorded result, `O=C1C=CC(O)(C#CCO)C=C1` , GI50: 4.62 µM (inactive)

Reported GI50 ( `CN(NC(=O)CC(=O)NN(C)C(=S)c1ccccc1)C(=S)c1ccccc1` ) = 67 µM (inactive)

Record summary for `O=c1c2cc(Br)ccc2nc(CNc2ccccc2)n1-c1ccccc1` : reported GI50 = 12.7 µM (inactive)

Entry O=CC(O)C(O)C(O)C(O)COP(=O)(O)Cc1ccccc1 (stereo unspecified) — recorded GI50 = > 10 µM (inactive)
